Source of measurements: patent US20080234262A1

Test system: breast line MDA468
experiment_summary: In vitro cell culture growth assay (MTS), MDA468
Assay type: cell-based, human
reported_conditions: Homo sapiens, 72 h, MDA468 cells, three days after drug treatment
pIC50: −log10 of the molar value.
Please use criterion met whenever pIC50 is not below 6, and criterion not met whenever it is.

Query: Check if pIC50 >= 6 (inclusive). Item: CCNC(=O)Nc1ccc(-c2nc(N3CCOCC3)c3cnn(C4CCN(C(=O)c5ccccc5)CC4)c3n2)cc1 [Compound 626]
Result: criterion met

Query: Check if pIC50 >= 6 (inclusive). Item: O=S(=O)(c1ccccc1)N1CCC(n2ncc3c(N4CCOCC4)nc(-c4ccc5[nH]ccc5c4)nc32)CC1 [Compound 92]
Result: criterion not met

Query: Check if pIC50 >= 6 (inclusive). Item: CN(C)CC(=O)Nc1ccc(-c2nc(N3CCOCC3)c3cnn(C4CCCCO4)c3n2)cc1 (stereo not drawn) [Compound 521]
Result: criterion not met

Query: Check if pIC50 >= 6 (inclusive). Item: CNC(=O)Nc1ccc(-c2nc(N3CCOCC3)c3cnn(C4CCN(C(=O)c5cnccc5C)CC4)c3n2)cc1 [Example 419]
Result: criterion met

Query: Check if pIC50 >= 6 (inclusive). Item: COC(=O)Nc1ccc(-c2nc(N3CCOCC3)c3cn[nH]c3n2)cc1 [Compound 279]
Result: criterion not met

Query: Check if pIC50 >= 6 (inclusive). Item: CC(=O)N(C)c1ccc(-c2nc(N3CCOCC3)c3cnn(-c4ccccc4)c3n2)cc1 [Compound 149]
Result: criterion not met

Query: Check if pIC50 >= 6 (inclusive). Item: C/C=C/C(=O)N1CCC(n2ncc3c(N4CCOCC4)nc(-c4ccc(NC(=O)NC)cc4)nc32)CC1 [Compound 756]
Result: criterion met

Query: Check if pIC50 >= 6 (inclusive). Item: COC(=O)Nc1ccc(-c2nc(N3CCOC(C)C3)c3cnn(C4CCN(C(=O)OC)CC4)c3n2)cc1 (stereo not drawn) [Compound 840]
Result: criterion not met

Query: Check if pIC50 >= 6 (inclusive). Item: CNC(=O)Nc1ccc(-c2nc(N3CCOCC3)c3cnn(C4CCN(Cc5cncc(F)c5)CC4)c3n2)cc1 [Example 392]
Result: criterion met

Query: Check if pIC50 >= 6 (inclusive). Item: CC(C)C(=O)Nc1ccc(-c2nc(N3CCOCC3)c3cnn(C4CCN(Cc5ccccc5)CC4)c3n2)cc1 [Compound 186]
Result: criterion not met

Query: Check if pIC50 >= 6 (inclusive). Item: CC(c1ccccc1)N1CCC(n2ncc3c(N4CCOCC4)nc(-c4ccc5[nH]ccc5c4)nc32)CC1 (stereo not drawn) [Compound 490]
Result: criterion not met

Query: Check if pIC50 >= 6 (inclusive). Item: CC(C)(C)COC(=O)N1CCC(n2ncc3c(N4CCOCC4)nc(-c4ccc(NC(=O)Nc5cccnc5)cc4)nc32)CC1 [Compound 877]
Result: criterion met
